Tested on: SW48 colorectal cancer cells
test details: 2D antiproliferation on MSI-H SW48 cells, CTG, 5 days
Format: cell-based
protocol conditions: Homo sapiens; SW48, 2500 nM; read-out: Average Value/Inhibition Rate

item smiles	inhibition at […], %
CCc1c(N2CCN(C(=O)c3ncnc(C)c3O)CC2)c(=O)n2nc(-c3cc4c(s3)COC4)nc2n1CC(=O)Nc1ccc(C(F)(F)F)cc1C	99
CCc1c(N2CCN(C(=O)c3ncnc(C)c3O)CC2)c(=O)n2nc(-c3cc4c(s3)COC4)nc2n1CC(=O)Nc1ccc(Br)cc1Cl	97.6
CCc1c(N2CCN(C(=O)c3ncnc(C)c3O)CC2)c(=O)n2nc(-c3cc4c(s3)COC4)nc2n1CC(=O)Nc1ccc(C(F)(F)F)cc1Cl	101
CCc1c(N2CCN(C(=O)c3ncnc(C)c3O)CC2)c(=O)n2nc(-c3cc4cn[nH]c4s3)nc2n1CC(=O)Nc1ccc(C(F)(F)F)cc1Cl	98.6
